All figures here come from patent US6723753B2.

Biological target: CETP (Homo sapiens, UniProt P11597)
Assay: Assay of CETP Inhibition using Purified Components (Reconstituted Buffer Assay)
Format: biochemical
Parameters: made in house; host or cells: CHO cells (serum-free conditioned medium)
Conditions: Inhibition of CETP activity in reconstituted buffer assay; transfer of [3H]CE from HDL to LDL; read-out: IC50
Method: Assay of CETP Inhibition using Purified Components (Reconstituted Buffer Assay) The ability of compounds to inhibit CETP activity was assessed using an in vitro assay that measured the rate of transfer of radiolabeled cholesteryl ester ([^3H]CE) from HDL donor particles to LDL acceptor particles. […] After filtration, the radioactivity present in the precipitated LDL was measured by liquid scintillation counting. […] Examples of IC50 values determined by these methods are specified in Table 9.
Strictly below 1000 nM in IC50: 1.0. Otherwise: 0.0.

| COMPOUND | ASSIGNED_CATEGORY |
| --- | --- |
| OC(CN(Cc1cccc(F)c1)Cc1ccccc1C(F)(F)F)C(F)(F)F (centres unmarked) [compound 188] | 0.0 |

q: Given the entry CC(=O)CCCCOc1cccc(N(Cc2cccc(OC(F)(F)C(F)F)c2)CC(O)C(F)(F)F)c1 (centres unmarked) [Example 495] , would its reported IC50 be below 1000 nM?
a: 0.0

q: Given the entry OC(CN(Cc1cccc(OC(F)(F)C(F)F)c1)c1cccc(-c2cccc(C(F)(F)F)c2)c1)C(F)(F)F (centres unmarked) [Example 550] , would its reported IC50 be below 1000 nM?
a: 1.0

q: Given the entry OC(CN(Cc1cccc(OC(F)(F)C(F)F)c1)c1cccc(Oc2ccc(F)cc2Cl)c1)C(F)(F)F (centres unmarked) [Example 230] , would its reported IC50 be below 1000 nM?
a: 1.0

* * *

Reported values of pIC50 for individual entries
Target: CETP (Homo sapiens)
Assay: Assay of CETP Inhibition in Human Plasma
Assay type: biochemical
Parameters: Blood was obtained from healthy volunteers, recruited from the personnel of Monsanto Company; from tissue; host or cells: human EDTA plasma pool from healthy volunteers
Conditions: Inhibition of CETP activity in human plasma assay; transfer of [3H]CE from HDL to VLDL and LDL; read-out: IC50
pIC50: −log10 of the molar value.

Worked cases, answers included:
| MOLECULE | pIC50 |
| --- | --- |
| OC(CN(Cc1cccc(OC(F)(F)C(F)F)c1)c1cccc(NCc2cccc(C(F)(F)F)c2)c1)C(F)(F)F (stereo not drawn) [Example 311] | < 4.00 |
| Cc1ccc([N+](=O)[O-])cc1Oc1cccc(N(Cc2cccc(OC(F)(F)C(F)F)c2)CC(O)C(F)(F)F)c1 (stereo not drawn) [Example 447] | < 4.30 |

Could you now look at the following molecule, please?
q: Could you share which pIC50 value was measured for OC(CN(Cc1cccc(Oc2cccc(C(F)(F)F)c2)c1)c1cccc(Oc2ccccc2)c1)C(F)(F)F (stereo not drawn) [Example 115] ?
a: < 4.00

* * *

Target: CETP (Homo sapiens)
Sequence (P11597 18-493): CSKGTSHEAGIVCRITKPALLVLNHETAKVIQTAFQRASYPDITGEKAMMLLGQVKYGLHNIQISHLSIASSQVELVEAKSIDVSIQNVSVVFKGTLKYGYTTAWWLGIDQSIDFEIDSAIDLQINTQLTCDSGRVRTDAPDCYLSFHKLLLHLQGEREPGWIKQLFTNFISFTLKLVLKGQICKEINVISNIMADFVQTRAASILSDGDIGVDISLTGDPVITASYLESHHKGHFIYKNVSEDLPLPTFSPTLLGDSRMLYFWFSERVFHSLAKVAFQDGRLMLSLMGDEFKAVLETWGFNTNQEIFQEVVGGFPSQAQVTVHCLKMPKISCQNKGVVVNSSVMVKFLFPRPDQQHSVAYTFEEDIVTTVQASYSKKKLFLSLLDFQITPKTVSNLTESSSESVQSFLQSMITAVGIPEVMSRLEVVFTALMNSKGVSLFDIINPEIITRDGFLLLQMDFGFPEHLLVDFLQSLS
Experiment: Assay of CETP Inhibition using Purified Components (Reconstituted Buffer Assay)
Assay type: biochemical
Set-up: made in house; host or cells: CHO cells (serum-free conditioned medium)
Settings: Inhibition of CETP activity in reconstituted buffer assay; transfer of [3H]CE from HDL to LDL; read-out: IC50
Method: Assay of CETP Inhibition using Purified Components (Reconstituted Buffer Assay) The ability of compounds to inhibit CETP activity was assessed using an in vitro assay that measured the rate of transfer of radiolabeled cholesteryl ester ([^3H]CE) from HDL donor particles to LDL acceptor particles. […] After filtration, the radioactivity present in the precipitated LDL was measured by liquid scintillation counting. […] Examples of IC50 values determined by these methods are specified in Table 9.
READOUT_KIND: IC50

Worked cases, answers included:
| COMPOUND | SYSTEM_UNDER_TEST | IC50 |
| --- | --- | --- |
| O=C(O)c1cccc(CN(CC(O)C(F)(F)F)c2cccc(OC(F)(F)F)c2)c1 (stereo not drawn) [Example 356] | CETP (Homo sapiens) | > 100 µM |
| Cc1cc(C)cc(Oc2cccc(N(Cc3cccc(OC(F)(F)C(F)F)c3)CC(O)C(F)(F)F)c2)c1 (stereo not drawn) [Example 234] | CETP (Homo sapiens) | 0.069 µM |
| Oc1ccc(O)c(CN(CC(O)C(F)(F)F)c2cccc(OC(F)(F)F)c2)c1 (stereo not drawn) [Example 358] | CETP (Homo sapiens) | > 100 µM |
| CCCCOc1ccc(NC(=O)N(CC(O)C(F)(F)F)c2cccc(OC(F)(F)F)c2)cc1 (stereo not drawn) [Example 367] | CETP (Homo sapiens) | > 100 µM |
| COc1c(F)c(F)c(CN(CC(O)C(F)(F)F)c2cccc(OC(F)(F)F)c2)c(F)c1F (stereo not drawn) [Example 326] | CETP (Homo sapiens) | > 100 µM |

Could you now look at the following compound, please?
q: Could you share which IC50 value was measured for COC(=O)c1ccc(CN(CC(O)C(F)(F)F)c2cccc(Oc3ccccc3)c2)cc1 (stereo not drawn) [Example 157] ?
a: > 100 µM

* * *

Molecular target: CETP (Homo sapiens, UniProt P11597)
Assay: Assay of CETP Inhibition using Purified Components (Reconstituted Buffer Assay)
Assay type: biochemical
Design: made in house; host or cells: CHO cells (serum-free conditioned medium)
Settings: Inhibition of CETP activity in reconstituted buffer assay; transfer of [3H]CE from HDL to LDL; read-out: IC50
READOUT_KIND: IC50 (nM)
Your answer should be a plain number; it is taken to be in nM.

Worked cases, answers included:
| COMPOUND | SYSTEM_UNDER_TEST | READOUT_KIND | DISPLAY_UNIT | REPORTED_VALUE |
| --- | --- | --- | --- | --- |
| O=[N+]([O-])c1cc(Br)ccc1Oc1cccc(N(Cc2cccc(OC(F)(F)C(F)F)c2)CC(O)C(F)(F)F)c1 (stereo not shown) [Example 439] | CETP (Homo sapiens, UniProt P11597) | IC50 | nM | 1000 |
| OC(CN(Cc1cccc(OC(F)(F)C(F)F)c1)c1cccc(Oc2cccc(-c3ccccc3)c2)c1)C(F)(F)F (stereo not shown) [Example 264] | CETP (Homo sapiens, UniProt P11597) | IC50 | nM | 1400 |
| OC(CN(Cc1cccc(Oc2ccccc2)c1)c1cccc(C(F)(F)F)c1)C(F)(F)F (stereo not shown) [Example 109] | CETP (Homo sapiens, UniProt P11597) | IC50 | nM | 25000 |

q: Could you share which IC50 value was measured for OC(CN(Cc1cccc(Br)c1)c1cccc(Oc2ccccc2)c1)C(F)(F)F (stereo not shown) [Example 595B] ?
a: 4500
